Reference for the values: patent US20230381281A1

- STUDY_SYSTEM: T1, human GIP receptor (human, UniProt P48546 22-466)
- T1 sequence (looked up): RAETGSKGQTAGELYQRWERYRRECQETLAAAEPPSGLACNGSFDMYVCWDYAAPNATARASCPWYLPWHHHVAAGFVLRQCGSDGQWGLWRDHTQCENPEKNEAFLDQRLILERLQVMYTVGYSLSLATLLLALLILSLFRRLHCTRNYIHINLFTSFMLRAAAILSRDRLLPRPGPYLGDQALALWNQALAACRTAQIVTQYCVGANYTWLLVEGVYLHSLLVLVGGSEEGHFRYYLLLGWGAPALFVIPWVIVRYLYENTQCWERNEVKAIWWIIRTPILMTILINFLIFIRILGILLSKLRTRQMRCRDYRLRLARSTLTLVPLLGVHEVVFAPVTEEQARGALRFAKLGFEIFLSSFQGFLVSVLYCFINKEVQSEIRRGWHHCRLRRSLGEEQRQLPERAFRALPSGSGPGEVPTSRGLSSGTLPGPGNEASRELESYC
- ASSAY_REMARKS: cell-based or functional assay
Bridge positions count the residues as written; N and C are the ends. Square brackets hold non-standard residues; d marks the D form. Ends that are not written are not given here. * marks the point of attachment. Acetyl(2-(4-imidazolyl)) = O=C(Cc1c[nH]cn1)*; Aib = CC(C)(N)C(=O)O
MEASURE: In vitro activity compared to native peptide (%) vs GIP
One number for each entry, in %.

Hello, I would appreciate it if you could give In vitro activity compared to native peptide (%) vs GIP for each entry below.
1. {Acetyl(2-(4-imidazolyl))}-[Aib]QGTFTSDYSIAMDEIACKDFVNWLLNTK (bridge 15-19) [Triple agonist of SEQ ID NO: 61]
2. H[Aib]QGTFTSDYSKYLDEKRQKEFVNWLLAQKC (bridge 16-20) [Triple agonist of SEQ ID NO: 34]
3. Y[Aib]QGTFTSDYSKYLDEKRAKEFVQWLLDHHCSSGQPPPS (bridge 16-20) [Triple agonist of SEQ ID NO: 43]
4. Y[Aib]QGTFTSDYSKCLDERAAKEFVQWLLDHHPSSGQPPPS (bridge 16-20) [Triple agonist of SEQ ID NO: 69]
5. Y[Aib]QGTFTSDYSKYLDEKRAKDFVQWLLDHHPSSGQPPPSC (bridge 16-20) [Triple agonist of SEQ ID NO: 76]
6. Y[Aib]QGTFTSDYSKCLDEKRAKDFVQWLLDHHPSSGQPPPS (bridge 16-20) [Triple agonist of SEQ ID NO: 70]
7. {Acetyl(2-(4-imidazolyl))}-[Aib]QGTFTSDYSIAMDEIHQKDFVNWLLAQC (bridge 15-19) [Triple agonist of SEQ ID NO: 85]

**Result**
1. 2.8
2. 0.6
3. 3.7
4. 62.8
5. 11.7
6. 64.4
7. 0.3

Hello, I would appreciate it if you could give In vitro activity compared to native peptide (%) vs GIP for each entry below.
1. H[Aib]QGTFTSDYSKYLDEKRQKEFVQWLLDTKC (bridge 16-20) [Triple agonist of SEQ ID NO: 78]
2. H[Aib]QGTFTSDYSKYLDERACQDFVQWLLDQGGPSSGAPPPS [Triple agonist of SEQ ID NO: 27]
3. {Acetyl(2-(4-imidazolyl))}-[Aib]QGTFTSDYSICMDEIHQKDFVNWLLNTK (bridge 15-19) [Triple agonist of SEQ ID NO: 49]

**Result**
0.12
0.9
3.3
